# system.under.test: CDK2/CycA (Homo sapiens, UniProt P24941)
# Construct: purchased Proqinase
# assay: CDK2 Enzymatic Activity Assay (Lance Kinase Activity Assay, FRET)
# Format: biochemical
# condition.context: Table 5B, class symbols per IC50 [nM] ranges of b581; read-out: CDK2: Selectivity of CDK7 inhibition over CDK2 inhibition
reported.endpoint: IC50

Some compounds with recorded IC50:
[[record]]
compound = "CNC1CCN(c2nc(NCc3ccccc3-n3cccn3)n3ncc(C(C)C)c3n2)CC1"
observed_value = "50 to 500 nM"

[[record]]
compound = "Cc1nccn1-c1ccccc1CNc1nc([S+]([O-])C2CCNCC2)nc2c(C(C)C)cnn12 (centres unmarked)"
observed_value = "500 to 2500 nM"

[[record]]
compound = "CC(C)c1cnn2c(NCc3ccccc3-n3cccn3)nc(OC3C=CCNC3)nc12 (centres unmarked)"
observed_value = "50 to 500 nM"

[[record]]
compound = "CC(C)c1cnn2c(NCc3ccccc3-n3cccn3)nc(NCCOCCN)nc12"
observed_value = "> 2500 nM"

[[record]]
compound = "CC(C)c1cnn2c(NCc3c(F)cccc3-n3cccn3)nc(O[C@@H]3CCCNC3)nc12"
observed_value = "50 to 500 nM"

[[record]]
compound = "CNC(=O)c1ccccc1CNc1nc(O[C@@H]2CCCNC2)nc2c(C(C)C)cnn12"
observed_value = "50 to 500 nM"

[[record]]
compound = "CC(C)c1cnn2c(NCc3cccc4ccncc34)nc(O[C@@H]3CCCNC3)nc12"
observed_value = "50 to 500 nM"

[[record]]
compound = "CC(C)c1cnn2c(NCc3ccccc3OS(C)(=O)=O)nc(O[C@@H]3CCCNC3)nc12"
observed_value = "50 to 500 nM"


Entry CC(C)c1cnn2c(NCc3ccc(F)cc3-n3cccn3)nc(O[C@@H]3CCCNC3)nc12 has what IC50?
< 50 nM

Entry CC(C)c1cnn2c(NCc3cccc4c3cnn4C)nc(O[C@@H]3CCCNC3)nc12 has what IC50?
< 50 nM

Entry CC(C)c1cnn2c(NCc3ccccc3-n3cccn3)nc(OC3C[C@H]4CNC[C@@H]34)nc12 (some centres unmarked) has what IC50?
50 to 500 nM

Entry CC(C)c1cnn2c(NCc3ccccc3-c3cccs3)nc(OC3CCN(C)CC3)nc12 has what IC50?
50 to 500 nM

Entry CC(C)c1cnn2c(NCc3ccccc3-n3cccn3)nc(N3CC4CCNC4C3)nc12 (centres unmarked) has what IC50?
> 2500 nM

Entry CC(C)c1cnn2c(NCc3cccc4cccnc34)nc(O[C@@H]3CCCNC3)nc12 has what IC50?
50 to 500 nM

Entry CC(C)c1cnn2c(NCc3ccccc3C3CC3)nc(O[C@@H]3CCCNC3)nc12 (stereo in doubt) has what IC50?
500 to 2500 nM

Entry CC(C)c1cnn2c(NCc3ccccc3-n3cccn3)nc(NCCCN3CCOCC3)nc12 has what IC50?
> 2500 nM

Entry CC(C)c1cnn2c(NCc3ccccc3S(=O)(=O)N3CCCC3)nc(O[C@@H]3CCCNC3)nc12 has what IC50?
50 to 500 nM

---

# system.under.test: CDK2/CycA (Homo sapiens, UniProt P24941)
# Construct: purchased Proqinase
# assay: CDK2 Enzymatic Activity Assay (Lance Kinase Activity Assay, FRET)
# Format: biochemical
# condition.context: Table 5B, class symbols per IC50 [nM] ranges of b581; read-out: CDK2: Selectivity of CDK7 inhibition over CDK2 inhibition
reported.endpoint: IC50

[[record]]
compound = "CC(C)c1cnn2c(NCc3ccccc3-c3ccccn3)nc(O[C@@H]3CCCNC3)nc12"
system_under_test = "CDK2/CycA (Homo sapiens, UniProt P24941)"
observed_value = "50 to 500 nM"


Entry CC(C)c1cnn2c(NCc3ccccc3S(C)(=O)=O)nc(O[C@@H]3CCCNC3)nc12 has what IC50?
50 to 500 nM

Entry CC(C)c1cnn2c(NCc3ccccc3-c3ccccc3)nc(O[C@@H]3CCNC3)nc12 has what IC50?
500 to 2500 nM

Entry CC(C)c1cnn2c(NCc3ccccc3OS(=O)C(C)(C)C)nc(O[C@@H]3CCCNC3)nc12 (some centres unmarked) has what IC50?
50 to 500 nM

Entry CC(C)c1cnn2c(NCc3ccccc3-n3cccn3)nc(CNCCCN3CCOCC3)nc12 has what IC50?
> 2500 nM

Entry CC(C)c1cnn2c(NCc3ccccc3-n3cncn3)nc(O[C@@H]3CCNC3)nc12 has what IC50?
< 50 nM

Entry CC(C)c1cnn2c(NCc3ccccc3-n3cccn3)nc(N3CCC(N(C)C)CC3)nc12 has what IC50?
50 to 500 nM

Entry CC(C)c1cnn2c(NCc3ccccc3NC(=O)NC3CCCCC3)nc(O[C@@H]3CCCNC3)nc12 has what IC50?
> 2500 nM

---

# system.under.test: CDK9/Cyclin T1 (Homo sapiens)
# Sequence (P50750 whole entry): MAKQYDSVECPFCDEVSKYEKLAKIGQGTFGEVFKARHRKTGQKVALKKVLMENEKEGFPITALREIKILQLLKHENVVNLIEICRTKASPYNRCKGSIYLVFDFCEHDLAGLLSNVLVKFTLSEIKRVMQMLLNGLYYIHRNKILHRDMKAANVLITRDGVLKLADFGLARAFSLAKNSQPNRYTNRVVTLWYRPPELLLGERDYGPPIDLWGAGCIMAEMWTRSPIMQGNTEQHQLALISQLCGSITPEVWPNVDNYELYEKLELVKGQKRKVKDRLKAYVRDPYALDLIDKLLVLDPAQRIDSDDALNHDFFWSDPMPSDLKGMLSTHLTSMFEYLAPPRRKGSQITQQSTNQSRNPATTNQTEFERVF
# Sequence (O60563 whole entry partner): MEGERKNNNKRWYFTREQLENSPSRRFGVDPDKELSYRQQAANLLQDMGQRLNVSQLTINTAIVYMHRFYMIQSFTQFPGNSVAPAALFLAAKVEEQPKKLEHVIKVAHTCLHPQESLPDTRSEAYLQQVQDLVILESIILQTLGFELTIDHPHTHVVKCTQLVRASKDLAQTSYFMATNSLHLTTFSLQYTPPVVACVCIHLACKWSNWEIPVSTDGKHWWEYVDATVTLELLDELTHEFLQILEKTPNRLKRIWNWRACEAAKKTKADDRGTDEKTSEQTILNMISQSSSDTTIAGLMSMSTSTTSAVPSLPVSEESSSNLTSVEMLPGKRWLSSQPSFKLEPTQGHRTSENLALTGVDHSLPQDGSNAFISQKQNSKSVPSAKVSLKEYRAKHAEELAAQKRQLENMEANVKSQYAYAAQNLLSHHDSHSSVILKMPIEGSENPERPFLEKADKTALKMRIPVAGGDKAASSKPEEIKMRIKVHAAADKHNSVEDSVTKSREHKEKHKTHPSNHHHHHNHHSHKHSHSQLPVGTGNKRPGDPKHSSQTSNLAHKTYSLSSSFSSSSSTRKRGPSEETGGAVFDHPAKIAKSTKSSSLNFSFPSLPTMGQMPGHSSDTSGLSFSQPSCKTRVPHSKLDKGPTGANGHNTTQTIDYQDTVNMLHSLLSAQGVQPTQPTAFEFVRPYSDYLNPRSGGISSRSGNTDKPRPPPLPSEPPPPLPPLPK
# assay: CDK9 Enzymatic Activity Assay (Lance Kinase Activity Assay, FRET)
# Format: biochemical
# condition.context: Table 6
reported.endpoint: Selectivity CDK7 over CDK9 (fold)
Number only, in fold; omit the unit.

Some compounds with recorded Selectivity CDK7 over CDK9:
[[record]]
chemical_smiles = "CC(C)c1cnn2c(NCc3ccccc3-c3ccccc3)nc(OC3CCN(C)CC3)nc12"
unit_annotation = "fold"
observed_value = 909

[[record]]
chemical_smiles = "CC(C)c1cnn2c(NCc3ccccc3-c3nnnn3C)nc(O[C@@H]3CCCNC3)nc12"
unit_annotation = "fold"
observed_value = 3255

[[record]]
chemical_smiles = "CC(C)c1cnn2c(NCc3ccccc3-n3ccnc3)nc(OC3CCN(C)CC3)nc12"
unit_annotation = "fold"
observed_value = 9140


Entry CCOc1ccccc1CNc1nc(OC2CCN(C)CC2)nc2c(C(C)C)cnn12 has what Selectivity CDK7 over CDK9?
992

---

# system.under.test: CDK7/CycH/Mat1 (Homo sapiens, UniProt P50613)
# Sequence (P50613 whole entry): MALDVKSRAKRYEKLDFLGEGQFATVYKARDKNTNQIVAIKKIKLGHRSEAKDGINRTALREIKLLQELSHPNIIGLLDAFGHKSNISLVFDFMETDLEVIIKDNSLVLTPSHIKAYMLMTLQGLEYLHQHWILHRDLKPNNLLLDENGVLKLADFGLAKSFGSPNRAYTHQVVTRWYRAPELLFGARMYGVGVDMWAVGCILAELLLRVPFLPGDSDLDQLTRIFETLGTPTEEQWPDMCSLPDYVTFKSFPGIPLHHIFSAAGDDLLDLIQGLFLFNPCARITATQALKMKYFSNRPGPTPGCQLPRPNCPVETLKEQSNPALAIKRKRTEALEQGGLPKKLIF
# assay: CDK7 Enzymatic Activity Assay (Lance Kinase Activity Assay, FRET)
# Type: biochemical
# condition.context: CDK7/CycH/Mat1, 25 μM ATP final; class ranges; read-out: CDK7: IC50 [nM] for CDK7 inhibition
List of IC50 values.

Some compounds with recorded IC50:
[[record]]
compound = "CC(C)c1cnn2c(NCc3ccccc3-n3cccn3)nc(N3CCC4(CCNCC4)C3)nc12"
reported_endpoint = "IC50"
observed_value = "< 5 nM"

[[record]]
compound = "CC(C)c1cnn2c(NCc3ccccc3-n3cccn3)nc(N3CCC4(CCN4)CC3)nc12"
reported_endpoint = "IC50"
observed_value = "< 5 nM"

[[record]]
compound = "CC(=O)Oc1ccccc1CNc1nc(O[C@@H]2CCCNC2)nc2c(C(C)C)cnn12"
reported_endpoint = "IC50"
observed_value = "10 to 25 nM"

[[record]]
compound = "CC(C)c1cnn2c(NCc3ccccc3Oc3ccccc3)nc(O[C@@H]3CCCNC3)nc12"
reported_endpoint = "IC50"
observed_value = "< 5 nM"

[[record]]
compound = "CC(C)c1cnn2c(NCc3ccccc3-c3nnnn3C)nc(N3CCC4(CCCN4)CC3)nc12"
reported_endpoint = "IC50"
observed_value = "< 5 nM"


Entry CC(C)c1cnn2c(NCc3ccccc3-n3cccn3)nc(OC3C[C@H]4CNC[C@@H]34)nc12 (some centres unmarked) has what IC50?
< 5 nM

Entry CC(C)c1cnn2c(NCc3ccccc3-c3ccccc3)nc(OC3CCNCC3)nc12 has what IC50?
< 5 nM

Entry CC(C)c1cnn2c(NCc3ccccc3-n3cccn3)nc(CN(C)CCN3CCCC3)nc12 has what IC50?
> 25 nM

---

List of IC50 values.
# system.under.test: CDK2/CycA (Homo sapiens, UniProt P24941)
# Construct: purchased Proqinase
# assay: CDK2 Enzymatic Activity Assay (Lance Kinase Activity Assay, FRET)
# Type: biochemical
# condition.context: Table 5B, class symbols per IC50 [nM] ranges of b581; read-out: CDK2: Selectivity of CDK7 inhibition over CDK2 inhibition

Some molecules with recorded IC50:
[[record]]
molecule = "CC(C)c1cnn2c(NCc3ccccc3-n3cccn3)nc(CN(C)CCCN3CCCCC3)nc12"
observed_value = "> 2500 nM"

[[record]]
molecule = "CC(C)c1cnn2c(NCc3ccccc3-n3cccn3)nc(C(=O)NCCCN)nc12"
observed_value = "> 2500 nM"

[[record]]
molecule = "CC(C)c1cnn2c(NCc3ccccc3-n3cccn3)nc(CNCCN3CCOCC3)nc12"
observed_value = "> 2500 nM"

[[record]]
molecule = "CC(C)c1cnn2c(NCc3ccccc3-n3cccn3)nc(NCC3CCNC3)nc12 (centres unmarked)"
observed_value = "> 2500 nM"

[[record]]
molecule = "CC(C)c1cnn2c(NCc3ccccc3SC3CCCC3)nc(O[C@@H]3CCCNC3)nc12"
observed_value = "500 to 2500 nM"

[[record]]
molecule = "CC(C)c1cnn2c(NCc3ccccc3-n3cccn3)nc(N3CCC4(CCNCC4)C3)nc12"
observed_value = "> 2500 nM"


Entry CC(C)COC(=O)Oc1ccccc1CNc1nc(O[C@@H]2CCCNC2)nc2c(C(C)C)cnn12 has what IC50?
> 2500 nM

Entry CC(C)c1cnn2c(NCc3ccccc3N=S(C)(C)=O)nc(O[C@@H]3CCCNC3)nc12 has what IC50?
500 to 2500 nM
